- test-name: In vitro permeability, Franz diffusion cell, regenerated cellulose membrane
- Format: in vitro ADME
- reported-conditions: pH 2, donor: 1.5 w/v% β-CD in buffer pH 2.0; 37 °C; read-out: Papp, Cellulose Membrane (RC)
measured-endpoint: Papp at 5 h (×10⁻⁶ cm/s)

>>> numeric_value("OC(CN1CCN(CC(O)(Cn2cncn2)c2ccc(F)cc2F)CC1)(Cn1cncn1)c1ccc(F)cc1F (stereo not shown)")
19.6

----------
- test-name: In vitro permeability, Franz diffusion cell, PermeaPad barrier
- Assay type: in vitro ADME
- reported-conditions: pH 2, donor: pure buffer pH 2.0; 37 °C; read-out: Papp, PermeaPad (PP)
measured-endpoint: Papp at 5 h

>>> result("OC(CN1CCN(CC(O)(Cn2cncn2)c2ccc(F)cc2F)CC1)(Cn1cncn1)c1ccc(F)cc1F (stereo not shown)")
"14.8 ×10⁻⁶ cm/s"

----------
- test-name: In vitro permeability, Franz diffusion cell, regenerated cellulose membrane
- Type: in vitro ADME
- reported-conditions: pH 2, donor: pure buffer pH 2.0; 37 °C; read-out: Papp, Cellulose Membrane (RC)
Overview of recorded Papp at 5 h for various molecules
measured-endpoint: Papp at 5 h

>>> result("OC(CN1CCN(CC(O)(Cn2cncn2)c2ccc(F)cc2F)CC1)(Cn1cncn1)c1ccc(F)cc1F (centres unmarked)")
"27.1 ×10⁻⁶ cm/s"
>>> result("OC(Cn1cncn1)(Cn1cncn1)c1ccc(F)cc1F")
"49 ×10⁻⁶ cm/s"

----------
- test-name: In vitro permeability, Franz diffusion cell, regenerated cellulose membrane
- Assay type: in vitro ADME
- reported-conditions: pH 2, donor: 1.5 w/v% HP-β-CD in buffer pH 2.0; 37 °C; read-out: Papp, Cellulose Membrane (RC)
measured-endpoint: Papp at 5 h (×10⁻⁶ cm/s)

>>> numeric_value("OC(CN1CCN(CC(O)(Cn2cncn2)c2ccc(F)cc2F)CC1)(Cn1cncn1)c1ccc(F)cc1F (stereo not shown)")
14.5
